System: basal cells and pyramidal cells of the airway epithelium
run description: miRNA expression in sorted basal cells versus pyramidal cells (ciliated + secretory), HTS and Agilent chips
Design: species or system human
condition info: basal cells
measure name: Intensity of the level of expression in log2 in basal cells (323(+))

Reported Intensity of the level of expression in log2 in basal cells (323(+)) for hsa-miR-30e: human miRNA, SEQ ID No. 36 (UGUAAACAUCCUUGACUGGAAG; expressed or natural sequence; listed as Homo sapiens) : what is it?
6.94 log2

What about hsa-miR-30b: human miRNA, SEQ ID No. 33 (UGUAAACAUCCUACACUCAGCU; expressed or natural sequence; listed as Homo sapiens) ?
8.76 log2

What about hsa-miR-99a: human miRNA, SEQ ID No. 52 (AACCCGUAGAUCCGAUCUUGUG; expressed or natural sequence; listed as Homo sapiens) ?
5.42 log2

What about hsa-miR-125a-5p: human miRNA, SEQ ID No. 3 (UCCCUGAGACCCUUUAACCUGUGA; expressed or natural sequence; listed as Homo sapiens) ?
6.63 log2

What about hsa-miR-96: human miRNA, SEQ ID No. 51 (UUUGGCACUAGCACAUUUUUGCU; expressed or natural sequence; listed as Homo sapiens) ?
6.81 log2

What about hsa-miR-130a: human miRNA, SEQ ID No. 4 (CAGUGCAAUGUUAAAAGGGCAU; expressed or natural sequence; listed as Homo sapiens) ?
9.76 log2

What about hsa-miR-425: human miRNA, SEQ ID No. 44 (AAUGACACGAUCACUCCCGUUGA; expressed or natural sequence; listed as Homo sapiens) ?
4.52 log2

What about hsa-miR-429: human miRNA, SEQ ID No. 45 (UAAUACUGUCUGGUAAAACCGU; expressed or natural sequence; listed as Homo sapiens) ?
6.92 log2

What about hsa-miR-100: human miRNA, SEQ ID No. 1 (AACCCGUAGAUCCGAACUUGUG; expressed or natural sequence; listed as Homo sapiens) ?
3.28 log2

What about hsa-miR-17: human miRNA, SEQ ID No. 11 (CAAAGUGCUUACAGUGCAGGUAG; expressed or natural sequence; listed as Homo sapiens) ?
6.64 log2

What about hsa-miR-16: human miRNA, SEQ ID No. 10 (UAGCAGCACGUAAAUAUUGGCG; expressed or natural sequence; listed as Homo sapiens) ?
9.10 log2

---

Test system: human airway epithelial cells (HAECs)
run description: High-throughput sequencing (HTS) of miRNAs at four stages of differentiation of HAECs
condition info: stage D0; Table VI
Field: Level of intensity of expression in log2 measured by high-throughput sequencing, D0. Provide a value for each of the substances that follow.
Please don't drop the unit; write it after the number.

Item: hsa-miR-939: human miRNA, SEQ ID No. 50 (UGGGGAGCUGAGGCUCUGGGGGUG; expressed or natural sequence; listed as Homo sapiens) Test system: human airway epithelial cells (HAECs) Read-out: Level of intensity of expression in log2 measured by high-throughput sequencing, D0 Value: ?
0.01 log2

What about hsa-miR-23b: human miRNA, SEQ ID No. 26 (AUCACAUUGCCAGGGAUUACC; expressed or natural sequence; listed as Homo sapiens) ?
14.06 log2

What about hsa-miR-200b: human miRNA, SEQ ID No. 17 (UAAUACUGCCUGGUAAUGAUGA; expressed or natural sequence; listed as Homo sapiens) ?
8.60 log2

What about hsa-miR-100: human miRNA, SEQ ID No. 1 (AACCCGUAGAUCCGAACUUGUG; expressed or natural sequence; listed as Homo sapiens) ?
10.72 log2

---

Field: Level of intensity of expression in log2 At the differentiated stage (WD) measured in HTS. Provide a value for each of the substances that follow.
Test system: human airway epithelial cells (HAECs)
run description: High-throughput sequencing (HTS) of miRNAs at four stages of differentiation of HAECs
condition info: healthy human airway epithelial tissue, stage WD
Could you give me the number in log2? Just the number is fine.

Reported Level of intensity of expression in log2 At the differentiated stage (WD) measured in HTS for hsa-miR-29c: human miRNA, SEQ ID No. 32 (UAGCACCAUUUGAAAUCGGUUA; expressed or natural sequence; listed as Homo sapiens) : what is it?
9.74

What about hsa-miR-200b: human miRNA, SEQ ID No. 17 (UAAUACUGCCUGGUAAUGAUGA; expressed or natural sequence; listed as Homo sapiens) ?
10.64

What about hsa-let-7c: human miRNA, SEQ ID No. 159 (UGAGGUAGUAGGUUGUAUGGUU; expressed or natural sequence; listed as Homo sapiens) ?
7.86

What about hsa-let-7e: human miRNA, SEQ ID No. 160 (UGAGGUAGGAGGUUGUAUAGUU; expressed or natural sequence; listed as Homo sapiens) ?
7.60

What about hsa-miR-27b: human miRNA, SEQ ID No. 30 (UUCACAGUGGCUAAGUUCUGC; expressed or natural sequence; listed as Homo sapiens) ?
14.81

---

Field: Level of intensity of expression in log2 measured by high-throughput sequencing, FC. Provide a value for each of the substances that follow.
System: human airway epithelial cells (HAECs)
run description: High-throughput sequencing (HTS) of miRNAs at four stages of differentiation of HAECs
condition info: stage FC; Table VI
Could you give me the number in log2? Just the number is fine.

Reported Level of intensity of expression in log2 measured by high-throughput sequencing, FC for hsa-miR-29c: human miRNA, SEQ ID No. 32 (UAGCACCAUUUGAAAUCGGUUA; expressed or natural sequence; listed as Homo sapiens) : what is it?
14.50

What about hsa-miR-224: human miRNA, SEQ ID No. 24 (CAAGUCACUAGUGGUUCCGUU; expressed or natural sequence; listed as Homo sapiens) ?
10.39

What about hsa-miR-99a: human miRNA, SEQ ID No. 52 (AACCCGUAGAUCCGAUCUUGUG; expressed or natural sequence; listed as Homo sapiens) ?
11.96

---

Test system: human airway epithelial cells (HAECs)
run description: Agilent miRNA chips, miRNA expression at four stages of differentiation of HAECs
condition info: stage D0; Table VI
measure name: Level of intensity of expression in log2 measured with the Agilent chips, D0 (log2)
Could you give me the number in log2? Just the number is fine.

Item: hsa-miR-26b: human miRNA, SEQ ID No. 29 (UUCAAGUAAUUCAGGAUAGGU; expressed or natural sequence; listed as Homo sapiens) Test system: human airway epithelial cells (HAECs) Read-out: Level of intensity of expression in log2 measured with the Agilent chips, D0 Value: ?
7.97

What about hsa-miR-30b: human miRNA, SEQ ID No. 33 (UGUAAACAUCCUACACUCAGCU; expressed or natural sequence; listed as Homo sapiens) ?
7.62

What about hsa-miR-449a: human miRNA, SEQ ID No. 46 (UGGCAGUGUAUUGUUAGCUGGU; expressed or natural sequence; listed as Homo sapiens) ?
1.47

---

Test system: human airway epithelial cells (HAECs)
run description: Agilent miRNA chips, miRNA expression at four stages of differentiation of HAECs
condition info: stage D0; Table VI
measure name: Level of intensity of expression in log2 measured with the Agilent chips, D0 (log2)
Could you give me the number in log2? Just the number is fine.

Reported Level of intensity of expression in log2 measured with the Agilent chips, D0 for hsa-miR-30c: human miRNA, SEQ ID No. 34 (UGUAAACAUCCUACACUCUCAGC; expressed or natural sequence; listed as Homo sapiens) : what is it?
7.80

What about hsa-miR-29a: human miRNA, SEQ ID No. 31 (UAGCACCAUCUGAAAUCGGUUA; expressed or natural sequence; listed as Homo sapiens) ?
11.23

What about hsa-miR-25: human miRNA, SEQ ID No. 27 (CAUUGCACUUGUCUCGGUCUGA; expressed or natural sequence; listed as Homo sapiens) ?
7.15

What about hsa-miR-96: human miRNA, SEQ ID No. 51 (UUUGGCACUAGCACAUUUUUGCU; expressed or natural sequence; listed as Homo sapiens) ?
8.52

What about hsa-miR-26a: human miRNA, SEQ ID No. 28 (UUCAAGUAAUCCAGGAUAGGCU; expressed or natural sequence; listed as Homo sapiens) ?
8.50

What about hsa-miR-34a: human miRNA, SEQ ID No. 38 (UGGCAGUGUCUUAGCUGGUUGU; expressed or natural sequence; listed as Homo sapiens) ?
8.58

What about hsa-miR-130a: human miRNA, SEQ ID No. 4 (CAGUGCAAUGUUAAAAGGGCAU; expressed or natural sequence; listed as Homo sapiens) ?
8.83

What about hsa-miR-17: human miRNA, SEQ ID No. 11 (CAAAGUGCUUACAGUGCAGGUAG; expressed or natural sequence; listed as Homo sapiens) ?
9.03

What about hsa-miR-205: human miRNA, SEQ ID No. 20 (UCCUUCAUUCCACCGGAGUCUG; expressed or natural sequence; listed as Homo sapiens) ?
13.18

What about hsa-miR-181a: human miRNA, SEQ ID No. 12 (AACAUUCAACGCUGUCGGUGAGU; expressed or natural sequence; listed as Homo sapiens) ?
7.05

What about hsa-miR-574-3p: human miRNA, SEQ ID No. 48 (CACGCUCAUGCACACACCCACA; expressed or natural sequence; listed as Homo sapiens) ?
4.73

What about hsa-miR-125a-5p: human miRNA, SEQ ID No. 3 (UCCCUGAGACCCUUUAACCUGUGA; expressed or natural sequence; listed as Homo sapiens) ?
7.37

What about hsa-miR-140-3p: human miRNA, SEQ ID No. 5 (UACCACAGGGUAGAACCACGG; expressed or natural sequence; listed as Homo sapiens) ?
3.55
